Values compiled from the NIST ThermoML archive (doi:10.1021/je4000372).

Settings: 293.15 K; 101 kPa; Liquid; Capillary tube (Ostwald / Ubbelohde) method
viscosity listing for selected compounds.
Please reply with the bare figure in mPa·s and do not write the unit itself.

// worked examples, viscosity included
OCCNCCO ... 890.9
NCCO ... 24.14
CCCCOCCOCCO ... 5.84

Next item in the queue.
[Q] Report viscosity for OCCN(CCO)CCO please.
[A] 917.6

* * *

Conditions: 323.15 K; 101 kPa; Liquid; Capillary tube (Ostwald / Ubbelohde) method
Quantity: viscosity (mPa·s)
Please reply with the bare figure in mPa·s and do not write the unit itself.

OCCNCCO ... 99.11
OCCN(CCO)CCO ... 108.3
NCCO ... 6.89

Next item in the queue.
[Q] Report viscosity for CCCCOCCOCCO please.
[A] 2.51

* * *

Settings: 323.15 K; 101 kPa; Liquid; Pycnometric method
± gives the expanded uncertainty stated by the source.
mass density listing for selected compounds.
Write the quantity with the unit trailing the number.

// worked examples, mass density included
OCCN(CCO)CCO [triethanolamine] ... 1107.1 ± 2.3 kg/m3
CCCCOCCOCCO [3,6-dioxa-1-decanol] ... 926.6 ± 2 kg/m3
OCCNCCO [diethanolamine] ... 1077.4 ± 2.2 kg/m3

Next item in the queue.
[Q] Report mass density for NCCO [2-aminoethan-1-ol] please.
[A] 991.9 ± 2.1 kg/m3

* * *

Conditions: 303.15 K; 101 kPa; Liquid; Pycnometric method
mass density listing for selected compounds.
Please reply with the bare figure in kg/m3 and do not write the unit itself.

// worked examples, mass density included
NCCO ... 1008.4
OCCNCCO ... 1089.8
OCCN(CCO)CCO ... 1118.5

[Q] Report mass density for CCCCOCCOCCO please.
[A] 943.5

* * *

viscosity listing for selected compounds.
Details: 333.15 K; 101 kPa; Liquid; Capillary tube (Ostwald / Ubbelohde) method
Please reply with the bare figure in mPa·s and do not write the unit itself.

// worked examples, viscosity included
NCCO ... 4.97
CCCCOCCOCCO ... 2
OCCN(CCO)CCO ... 64.2

[Q] Report viscosity for OCCNCCO please.
[A] 58.12

* * *

Conditions: 293.15 K; 101 kPa; Liquid; Pycnometric method
mass density listing for selected compounds.
Please reply with the bare figure in kg/m3 and do not write the unit itself.

// worked examples, mass density included
CCCCOCCOCCO ... 952.9
OCCN(CCO)CCO ... 1124.3
OCCNCCO ... 1096.1

Next item in the queue.
[Q] Report mass density for NCCO please.
[A] 1016.1

* * *

viscosity listing for selected molecules.
Conditions: 303.15 K; 101 kPa; Liquid; Capillary tube (Ostwald / Ubbelohde) method
Please reply with the bare figure in mPa·s and do not write the unit itself.

[Q] Report viscosity for OCCN(CCO)CCO please.
[A] 404.7

[Q] Report viscosity for OCCNCCO please.
[A] 382.2

[Q] Report viscosity for CCCCOCCOCCO please.
[A] 4.23

[Q] Report viscosity for NCCO please.
[A] 14.88

* * *

mass density listing for selected compounds.
Conditions: 333.15 K; 101 kPa; Liquid; Pycnometric method
Please reply with the bare figure in kg/m3 and do not write the unit itself.

// worked examples, mass density included
NCCO ... 983.6
OCCNCCO ... 1070.7
CCCCOCCOCCO ... 918.5

Next item in the queue.
[Q] Report mass density for OCCN(CCO)CCO please.
[A] 1101.5
